Each record here notes measured melting point.
endpoint name: melting point

molecule: O=COCc1ccc2c(c1)C(C(Cl)(Cl)Cl)OC(C(Cl)(Cl)Cl)O2 (centres undefined)
endpoint name: melting point
recorded result: 75 to 77 °C
//
molecule: COc1cc(OC)c(-c2cccs2)cc1C=O
endpoint name: melting point
recorded result: 125 to 126 °C
//
molecule: Cc1ccccc1-c1cccc(F)c1C#N
endpoint name: melting point
recorded result: 57 to 58 °C
//
molecule: N#CC=C1CCN(c2ccc(N3C[C@H](CNC(=O)CO)OC3=O)cc2F)CC1
endpoint name: melting point
recorded result: 68 to 70 °C
//
molecule: CCO[C@H]1C(C(=O)NCc2ccc(Cl)cc2)=C(C)OC(OCC)(OCC)[C@H]1C (relative stereo)
endpoint name: melting point
recorded result: 97 to 100 °C
//
molecule: CC12CCC3c4ccc(O)cc4CCC3C1CCC2OC(=O)c1cccnc1 (centres undefined)
endpoint name: melting point
recorded result: 221 to 222 °C
//
molecule: Cn1ccnc1Sc1ccc(Nc2c(C#N)cnc3cc(-c4ccc(CN5CCNCC5)cc4)ccc23)cc1Cl
endpoint name: melting point
recorded result: 140 to 142 °C
//
molecule: O=C(NC(CS)Cc1ccccc1)N1CCCC1 (single isomer, unassigned; (+))
endpoint name: melting point
recorded result: 92 to 94 °C
//
molecule: CCOCCn1c(NC2CCN(CC#N)CC2)nc2cccnc21
endpoint name: melting point
recorded result: 141 °C

###

endpoint name: melting point

compound: CC(=O)N(C#N)C1(c2ccc(OCc3ccc4ccccc4n3)cc2)CCCC1
endpoint name: melting point
recorded result: 90 °C

compound: CC(C)(C)C(=O)C(C(O)C(Cl)(Cl)Cl)n1cncn1 (stereo unspecified)
endpoint name: melting point
recorded result: 220 to 222 °C

compound: OCC1Cc2c(c(Cl)cc3c(-c4ccccc4F)noc23)O1 (stereo unspecified)
endpoint name: melting point
recorded result: 136 to 139 °C

compound: Cn1cc(C2=C(c3cn(C(=O)C(C)(C)C)c4cc([N+](=O)[O-])ccc34)C(=O)NC2=O)c2ccccc21
endpoint name: melting point
recorded result: > 245 °C

compound: COc1c2c(c(OC)c(OC)c1OC)CCC(CCOc1ccc(Cl)cc1)CC2
endpoint name: melting point
recorded result: 98 to 102 °C

compound: CCC(=O)Oc1c(OC)cc(C=CC(=O)Nc2cnc3c(C)cc(C)cc3c2-c2ccccc2Cl)cc1OC
endpoint name: melting point
recorded result: 235 to 236 °C

compound: CC1(CNC(=O)C(F)(F)F)CN(C(c2ccccc2)c2ccccc2)C1
endpoint name: melting point
recorded result: 127 to 128 °C

compound: CCCCNC(=O)c1cc([N+](=O)[O-])cnc1C
endpoint name: melting point
recorded result: 98 to 99 °C

compound: CC(C(=O)O)c1ccc([N+](=O)[O-])c(CC(=O)O)c1 (stereo unspecified)
endpoint name: melting point
recorded result: 169 to 171 °C

compound: COc1cccc(NC(=O)NCc2nnc(C)n2-c2sc(C(=O)O)cc2C(=O)c2ccccc2Cl)c1
endpoint name: melting point
recorded result: 206 to 208 °C

compound: CCCCCCCCCCCCc1ccc(S(=O)(=O)Nc2nnc(CC(=O)O)s2)cc1
endpoint name: melting point
recorded result: 194 to 195 °C

compound: CCOC(=O)c1ccc(OCc2ccccc2)c(OC)c1
endpoint name: melting point
recorded result: 72 to 74 °C

compound: COc1ccc(Nc2ccnc(Nc3cc(OC)c(OC)c(OC)c3)n2)cc1
endpoint name: melting point
recorded result: 210 °C

compound: CN(C)C(=O)c1cccnc1SCc1ccccc1
endpoint name: melting point
recorded result: 61 to 63 °C

compound: CCOC(=O)NC1CCCCn2c1nc(-c1ccncn1)c(Br)c2=O (racemic)
endpoint name: melting point
recorded result: 72 to 74 °C

compound: COc1ccccc1COc1ccc(S(=O)(=O)c2ccc(C)nc2Nc2cc(F)c(N(C)C)cc2Cl)cc1
endpoint name: melting point
recorded result: 68 to 70 °C

compound: C=CNC(=O)n1sc(OCC)nc1=O
endpoint name: melting point
recorded result: 123 °C

compound: CCOC(=O)N1CCN(c2ccncc2[N+](=O)[O-])CC1
endpoint name: melting point
recorded result: 101 to 103 °C

compound: CCn1c(=O)ccc2cnc(Nc3ccc(OC)c(F)c3)nc21
endpoint name: melting point
recorded result: 196 to 198 °C

compound: N#CSc1cnn(-c2nc(F)c(C(F)(F)F)cc2Cl)c1N
endpoint name: melting point
recorded result: 109 to 114 °C

compound: OCC1NCCc2occc21 (stereo unspecified)
endpoint name: melting point
recorded result: 66 to 69 °C

compound: OCc1ccc(-c2c3ccccc3nn2Cc2ccco2)cc1
endpoint name: melting point
recorded result: 129 to 130 °C

compound: O=C(Nc1ccc(Cl)cc1)c1cccc(Cl)c1
endpoint name: melting point
recorded result: 124 to 126 °C

compound: C=CCNC(=O)ON=C1CCOc2ccccc21
endpoint name: melting point
recorded result: 83 to 86 °C

compound: CCOC(=O)c1cc(CCCOc2c(C)cc(-c3noc(C)n3)cc2C)on1
endpoint name: melting point
recorded result: 95 to 96 °C

compound: CCOC(=O)C(=O)CC(=O)C=Cc1ccc([N+](=O)[O-])cc1
endpoint name: melting point
recorded result: 148 to 154 °C

compound: N#Cc1ccc(OCCNc2ccc(C(=O)O)cc2)c2ccccc12
endpoint name: melting point
recorded result: 254 to 256 °C

compound: CCC(C)(NC(=O)C1=C(C(=O)Nc2cc(OC3CCCC3)c(Cl)cc2F)CCCC1)c1ccc(Cl)cc1 (stereo unspecified)
endpoint name: melting point
recorded result: 200 to 201 °C

compound: OCc1cnc2n1-c1ccc(Cl)cc1C(c1ccccc1)=NC2
endpoint name: melting point
recorded result: 210 to 213 °C

compound: Cc1cccc2c1nc(-c1c(F)cccc1F)n2Cc1cccnc1
endpoint name: melting point
recorded result: 131 to 132 °C

compound: COC1=C(OC)C(=O)C2=C(CC(CCCCOc3ccc(CO)cc3)C2)C1=O
endpoint name: melting point
recorded result: 72 to 75 °C

compound: CCOC=Nn1c(NC)n[nH]c1=O
endpoint name: melting point
recorded result: 169 °C

compound: C=CCSc1nc(N)n(-c2nnc(-c3ccccc3O)s2)n1
endpoint name: melting point
recorded result: 222 to 223 °C

compound: O=C(NCC(=O)OCCC(F)=C(F)F)Nc1ccc(Cl)cc1Cl
endpoint name: melting point
recorded result: 120 °C

compound: CN1CC(=O)Nc2ccc(F)cc2C1=O
endpoint name: melting point
recorded result: > 250 °C

compound: CC(=O)OCCn1cc(-c2ccccc2)[nH]c1=O
endpoint name: melting point
recorded result: 86 to 88 °C

compound: CCCCCC1(C(=O)Nc2ccc(C(=O)O)cn2)CC2=C(C1)C(C)(C)CCC2(C)C
endpoint name: melting point
recorded result: 172 to 174 °C

compound: NS(=O)(=O)c1cc(C(=O)OCC(=O)N2CCC[C@@H]2CO[N+](=O)[O-])c(NCc2ccco2)cc1Cl
endpoint name: melting point
recorded result: 64 to 66 °C

compound: O=C(O)Cc1ccc(-c2onc3ccccc23)cc1
endpoint name: melting point
recorded result: 179 to 181 °C

compound: COc1cc2c(c3c1OC(C)(C)C3)C(c1ccc(=O)n(Cc3ccc(C(N)=O)cc3)c1)=NC(C)(C)C2
endpoint name: melting point
recorded result: 262 to 266 °C

compound: Nc1nc(-c2ccc(CCCCCl)s2)cs1
endpoint name: melting point
recorded result: 99 to 100 °C
